Assay info: Cytotoxicity in human AZ-521 cells assessed as cell viability after 48 hrs by MTT assay
Format: functional, cell-based
Details: AZ-521, 48 h
pIC50: −log10 of the molar value.
Please provide measured pIC50 for the entries that follow.

[
  {
    "Smiles data": "C=C(CC[C@@H](CO)[C@H]1[C@H](O)C[C@@]2(C)C3=C(CC[C@]12C)[C@@](C)(CCCO)[C@H](C(=C)C)CC3)C(C)C",
    "Observed property": "pIC50",
    "Value observed": "< 4.00"
  }
]

// each compound listed below needs its pIC50
1. O=c1[nH]cc(F)c(=O)[nH]1
2. C=C(CC[C@@H](C(=O)O)[C@H]1[C@H](O)C[C@@]2(C)C3=CC[C@@H](C(=C)C)[C@](C)(CCC(=O)O)C3=CC[C@]12C)C(C)C

// result
["< 4.00", "< 4.00"]

----------
Tested on: OVCAR-3
Assay info: Cytotoxicity in human OVCAR3 cells assessed as cell viability after 48 hrs by MTT assay
Assay type: functional, cell-based
Details: OVCAR-3, 48 h
Observed property: IC50 (µM)
Numbers only, in µM.

Observe how each entry below is paired with its result.
[
  {
    "Compound": "C=C(CC[C@@H](C(=O)O)[C@H]1CC[C@@]2(C)C3=CC[C@@H](C(=C)C)[C@](C)(CCC(=O)O)C3=CC[C@]12C)C(C)C [PORICOIC ACID C]",
    "Value observed": 53.1
  },
  {
    "Compound": "C=C(CC[C@@H](C(=O)OC)[C@H]1[C@H](O)C[C@@]2(C)C3=CC[C@@H](C(=C)C)[C@](C)(CCC(=O)OC)C3=CC[C@]12C)C(C)C [DIMETHYL PORICOATE A]",
    "Value observed": 91.8
  }
]

Item: C=C(C)[C@@H]1CCC2=C(CC[C@]3(C)[C@@H]([C@H](CO)CCC=C(C)C)[C@H](O)C[C@@]23C)[C@@]1(C)CCCO [PORICOTRIOL G] | IC50: 43.5

----------
System: PANC-1
Assay info: Cytotoxicity in human PANC1 cells assessed as cell viability after 48 hrs by MTT assay
Type: functional, cell-based
Details: PANC-1, 48 h
Please provide measured IC50 for the entries that follow.

Observe how each entry below is paired with its result.
[
  {
    "Molecule": "C=C(C)[C@@H]1CCC2=C(CC[C@]3(C)[C@@H]([C@@H](CCC=C(C)C)C(=O)O)[C@H](O)C[C@@]23C)[C@@]1(C)CCC(=O)O [PORICOIC ACID G]",
    "Assayed target": "PANC-1",
    "IC50": "> 100 µM"
  },
  {
    "Molecule": "C=C(CC[C@@H](CO)[C@H]1[C@H](O)C[C@@]2(C)C3=C(CC[C@]12C)[C@@](C)(CCCO)[C@H](C(=C)C)CC3)C(C)C",
    "Assayed target": "PANC-1",
    "IC50": "> 100 µM"
  }
]

Below: the item to evaluate.
GET /values?item= C=C(C)[C@@H]1CCC2=C(CC[C@]3(C)[C@@H]([C@@H](CCC=C(C)C)C(=O)OC)[C@H](O)C[C@@]23C)[C@@]1(C)CCC(=O)OC [DIMETHYL PORICOATE G] &system= PANC-1 returns IC50: > 100 µM
